Attribution: patent US11718624B2

Assay: Distribution in rat brain and plasma after single oral dose
Type: in vivo, Sprague Dawley rats
Conditions: Sprague Dawley, rat; Male SD rats, single oral dose 100 mg/kg, brain
READOUT LABEL: Tmax (h)

>>> measured("COc1ncnc(C2CC2)c1-c1ncc2cnn(Cc3ccc(-c4nc(C(F)(F)F)cn4C(C)C)cc3)c2n1 [Crystalline Form 2]")
8

----------
Test: Distribution in mouse brain and plasma after repeated oral dosing
Assay type: in vivo
Settings: brain, 100 mg/kg QD oral gavage, 4 h (Day 28), female NOD SCID mice, read-out: Brain Conc.
READOUT LABEL: concentration at 4 h (ng/g)

>>> measured("COc1ncnc(C2CC2)c1-c1ncc2cnn(Cc3ccc(-c4nc(C(F)(F)F)cn4C(C)C)cc3)c2n1 [Crystalline Form 2]")
1520

----------
Assay: Distribution in mouse brain and plasma after repeated oral dosing
Type: in vivo
Settings: brain, 300 mg/kg QD oral gavage, 24 h (Day 28), female NOD SCID mice, read-out: Brain Conc.
READOUT LABEL: concentration at 24 h

>>> measured("COc1ncnc(C2CC2)c1-c1ncc2cnn(Cc3ccc(-c4nc(C(F)(F)F)cn4C(C)C)cc3)c2n1 [Crystalline Form 2]")
"66.1 ng/g"

----------
Experiment: Distribution in rat brain and plasma after single oral dose
Type: in vivo, Sprague Dawley rats
Conditions: Sprague Dawley, rat; Male SD rats, single oral dose 100 mg/kg, plasma
READOUT LABEL: half-life (h)

>>> measured("COc1ncnc(C2CC2)c1-c1ncc2cnn(Cc3ccc(-c4nc(C(F)(F)F)cn4C(C)C)cc3)c2n1 [Crystalline Form 2]")
9.13

----------
Test: Mouse pharmacokinetic study, single oral dose, plasma
Format: in vivo, NOD/SCID mice
Conditions: female, NOD/SCID, mouse, plasma, po, 300 mg/kg, Mouse 8; single PO dose 300 mg/kg
READOUT LABEL: half-life (h)

>>> measured("COc1ncnc(C2CC2)c1-c1ncc2cnn(Cc3ccc(-c4nc(C(F)(F)F)cn4C(C)C)cc3)c2n1 [Crystalline Form A]")
6.79

----------
Test: Mouse pharmacokinetic study, single oral dose, plasma
Assay type: in vivo, NOD/SCID mice
Conditions: female, NOD/SCID, mouse, plasma, po, 300 mg/kg, Mouse 11; single PO dose 300 mg/kg
Experimental: […] Concentrations of each compound in the plasma samples were then analyzed using an LC-MS/MS method. […] The following PK parameters were calculated, whenever possible from the plasma concentration versus time data: Cmax, Tmax, T1/2, AUCinf, and AUClast. […] Concentrations of compound in the plasma samples were then analyzed using an LC-MS/MS method. […] The following PK parameters were calculated, whenever possible from the plasma concentration versus time data: Cmax, Tmax, T1/2, AUCinf, and AUClast. […]
READOUT LABEL: AUC(0-t) (µg·h/mL)

>>> measured("COc1ncnc(C2CC2)c1-c1ncc2cnn(Cc3ccc(-c4nc(C(F)(F)F)cn4C(C)C)cc3)c2n1 [Crystalline Form 8]")
168

----------
Assay: Distribution in mouse brain and plasma after repeated oral dosing
Assay type: in vivo
Conditions: plasma, 100 mg/kg QD oral gavage, 24 h (Day 28), female NOD SCID mice, read-out: Plasma Conc.
READOUT LABEL: concentration at 24 h (ng/mL)

>>> measured("COc1ncnc(C2CC2)c1-c1ncc2cnn(Cc3ccc(-c4nc(C(F)(F)F)cn4C(C)C)cc3)c2n1 [Crystalline Form 2]")
178
